Biological target: mouse TRPM3α2 (mTRPM3) ion channel (Mus musculus, UniProt J9SQF3)
Sequence (J9SQF3 1-1709 isoform J9SQF3-12): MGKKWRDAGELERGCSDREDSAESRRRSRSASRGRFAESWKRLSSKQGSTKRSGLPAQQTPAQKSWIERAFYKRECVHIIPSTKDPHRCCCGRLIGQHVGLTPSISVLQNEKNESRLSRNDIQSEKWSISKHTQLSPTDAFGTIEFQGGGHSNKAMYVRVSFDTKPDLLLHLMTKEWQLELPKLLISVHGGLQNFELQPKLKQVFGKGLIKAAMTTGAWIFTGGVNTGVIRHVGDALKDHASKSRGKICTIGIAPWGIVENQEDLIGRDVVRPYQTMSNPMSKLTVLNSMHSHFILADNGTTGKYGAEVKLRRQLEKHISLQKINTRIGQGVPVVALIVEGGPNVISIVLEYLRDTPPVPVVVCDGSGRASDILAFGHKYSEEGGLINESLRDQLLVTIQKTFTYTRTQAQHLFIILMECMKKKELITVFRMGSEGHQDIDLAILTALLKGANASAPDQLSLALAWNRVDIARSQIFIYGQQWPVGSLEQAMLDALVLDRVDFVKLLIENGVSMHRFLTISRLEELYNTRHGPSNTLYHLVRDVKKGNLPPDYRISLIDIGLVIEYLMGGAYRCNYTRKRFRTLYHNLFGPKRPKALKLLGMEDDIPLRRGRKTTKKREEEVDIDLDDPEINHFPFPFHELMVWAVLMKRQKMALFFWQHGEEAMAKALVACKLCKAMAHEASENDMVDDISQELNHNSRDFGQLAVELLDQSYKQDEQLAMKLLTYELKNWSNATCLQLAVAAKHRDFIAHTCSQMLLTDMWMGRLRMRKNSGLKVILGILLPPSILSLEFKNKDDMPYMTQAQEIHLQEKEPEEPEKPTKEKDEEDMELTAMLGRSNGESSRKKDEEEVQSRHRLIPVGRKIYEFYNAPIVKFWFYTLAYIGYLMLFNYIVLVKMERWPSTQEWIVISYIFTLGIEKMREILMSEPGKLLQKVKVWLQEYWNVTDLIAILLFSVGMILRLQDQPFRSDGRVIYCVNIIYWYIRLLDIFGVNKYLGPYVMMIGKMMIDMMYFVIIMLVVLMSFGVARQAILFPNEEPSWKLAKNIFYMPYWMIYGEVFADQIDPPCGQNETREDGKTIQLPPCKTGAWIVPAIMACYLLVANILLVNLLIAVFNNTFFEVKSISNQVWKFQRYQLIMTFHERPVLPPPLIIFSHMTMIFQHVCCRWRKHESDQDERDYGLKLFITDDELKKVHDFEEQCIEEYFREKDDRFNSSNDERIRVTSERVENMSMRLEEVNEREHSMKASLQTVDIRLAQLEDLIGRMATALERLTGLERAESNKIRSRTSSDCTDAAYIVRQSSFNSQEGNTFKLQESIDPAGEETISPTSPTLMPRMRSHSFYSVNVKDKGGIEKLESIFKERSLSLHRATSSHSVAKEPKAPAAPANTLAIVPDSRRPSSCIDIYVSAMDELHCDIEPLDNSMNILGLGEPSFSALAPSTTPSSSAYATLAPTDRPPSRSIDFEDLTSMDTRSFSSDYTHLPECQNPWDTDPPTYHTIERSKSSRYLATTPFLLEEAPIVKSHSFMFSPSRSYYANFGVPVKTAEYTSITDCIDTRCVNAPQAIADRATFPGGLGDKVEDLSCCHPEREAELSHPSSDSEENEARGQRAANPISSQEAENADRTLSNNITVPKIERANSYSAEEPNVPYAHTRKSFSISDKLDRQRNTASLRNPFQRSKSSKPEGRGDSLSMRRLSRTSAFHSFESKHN
Experiment: TRPM3 ion channel driven Ca2+ uptake, Fluo-4 AM assay, mTRPM3alpha2 overexpressing flip-in HEK293 cells stimulated with pregnenolone sulfate (50 μM)
Conditions: mTRPM3 overexpressing HEK293 cells stimulated with pregnenolone sulfate (50 μM), activity ranges A, B, C
pIC50: −log10 of the molar value.

- compound: "Cn1nc2ccc(OCc3ccccc3)cc2c1C(=O)NC(C)(C)CO [Cpd 023]"
  pIC50: "4.70 to 6.00"
- compound: "Cc1ncsc1COc1ccc2nn(C)c(C(=O)NC3CCN(C)C3)c2c1 (centres unmarked) [Cpd 075]"
  pIC50: "4.70 to 6.00"
- compound: "Cc1ncsc1COc1ccc2nn(C)c(C(=O)NC3(C(N)=O)COC3)c2c1 [Cpd 031]"
  pIC50: "4.70 to 6.00"
- compound: "Cc1ncc(COc2ccc3nn(C)c(C(=O)N[C@@H](CO)C(N)=O)c3c2)s1 [Cpd 126]"
  pIC50: "4.70 to 6.00"
- compound: "Cc1ncsc1COc1ccc2nn(C)c(C(=O)NC3CCNC3)c2c1 (single isomer, unassigned) [Cpd 215 - En2]"
  pIC50: "4.70 to 6.00"
- compound: "CN(C)C1(CNC(=O)c2c3cc(OCc4ccccc4)ccc3nn2C)CCC1 [Cpd 078]"
  pIC50: "4.70 to 6.00"
- compound: "Cn1nc2ccc(OCc3ccccc3F)cc2c1C(=O)NC1(C(N)=O)CCOC1 (single isomer, unassigned) [Cpd 166 - En1]"
  pIC50: "4.70 to 6.00"
- compound: "Cn1nc2ccc(OCc3ccccc3)cc2c1C(=O)NC(C)(CO)CO [Cpd 017]"
  pIC50: "4.70 to 6.00"
- compound: "Cn1nc2ccc(OCc3cccnc3C(F)(F)F)cc2c1C(=O)NC(C)(CO)CO [Cpd 016]"
  pIC50: "> 6.00"
- compound: "Cn1nccc1COc1ccc2nn(C)c(C(=O)NC3COCC3O)c2c1 (single isomer, unassigned) [Cpd 056 - Dia1]"
  pIC50: "4.70 to 6.00"
- compound: "Cn1nc2ccc(OCc3ccccc3)cc2c1C(=O)NC1CCN(CCO)C1=O (centres unmarked) [Cpd 038]"
  pIC50: "4.70 to 6.00"
- compound: "CCn1nc2ccc(OCc3ccccn3)cc2c1C(=O)NC(C)(CO)C(N)=O (single isomer, unassigned) [Cpd 188 - En2]"
  pIC50: "> 6.00"
- compound: "Cn1ccc(C(C)(CO)NC(=O)c2c3cc(OCc4ccccn4)ccc3nn2C)n1 (single isomer, unassigned) [Cpd 239 - En1]"
  pIC50: "< 4.70"
- compound: "CN(C)C(=O)C(C)(CO)NC(=O)c1c2cc(OCc3cccnc3C(F)(F)F)ccc2nn1C (single isomer, unassigned) [Cpd 193 - En2]"
  pIC50: "< 4.70"
- compound: "Cn1nccc1COc1ccc2nn(C)c(C(=O)NCC(C)(C)N3CCOCC3)c2c1 [Cpd 049]"
  pIC50: "< 4.70"
- compound: "Cn1nc2ccc(OCc3ccccc3)cc2c1C(=O)NCC1CCC(=O)N1 (centres unmarked) [Cpd 066]"
  pIC50: "< 4.70"
- compound: "Cn1nc2ccc(OCc3cccnc3C(F)(F)F)cc2c1C(=O)NC(C)(C)CO [Cpd 076]"
  pIC50: "4.70 to 6.00"

###

Target: mouse TRPM3α2 (mTRPM3) ion channel (Mus musculus)
Experiment: TRPM3 ion channel driven Ca2+ uptake, Fluo-4 AM assay, mTRPM3alpha2 overexpressing flip-in HEK293 cells stimulated with pregnenolone sulfate (50 μM)
Settings: mTRPM3 overexpressing HEK293 cells stimulated with pregnenolone sulfate (50 μM), activity ranges A, B, C
endpoint_label: IC50

- compound: "Cn1nc2ccc(OCc3ccccn3)cc2c1C(=O)NC1CNCC(F)(F)C1 (single isomer, unassigned) [Cpd 214 - En1]"
  endpoint_label: "IC50"
  endpoint_value: "> 20 µM"
- compound: "Cn1nc2ccc(OCc3cccnc3C(F)(F)F)cc2c1C(=O)NC1CCNCC1(F)F (single isomer, unassigned) [Cpd 003 - En2]"
  endpoint_label: "IC50"
  endpoint_value: "1 to 20 µM"
- compound: "Cn1nc2ccc(OCc3cccnc3)cc2c1C(=O)NC(C)(CO)C(N)=O (single isomer, unassigned) [Cpd 190 - En2]"
  endpoint_label: "IC50"
  endpoint_value: "< 1 µM"
- compound: "Cn1nc2ccc(OCC3CC3)cc2c1C(=O)NC1(C(N)=O)CCOC1 (single isomer, unassigned) [Cpd 165 - En1]"
  endpoint_label: "IC50"
  endpoint_value: "1 to 20 µM"
- compound: "Cn1nc2ccc(OCc3ccccn3)cc2c1C(=O)NC(CO)C1CCOCC1 (single isomer, unassigned) [Cpd 241 - En2]"
  endpoint_label: "IC50"
  endpoint_value: "> 20 µM"
- compound: "Cn1nccc1COc1ccc2nn(C)c(C(=O)NC(C)(CO)C(N)=O)c2c1 (single isomer, unassigned) [Cpd 154 - En2]"
  endpoint_label: "IC50"
  endpoint_value: "< 1 µM"
- compound: "Cn1nc2ccc(OCc3cccnc3C(F)(F)F)cc2c1C(=O)NC1CCN(CCO)C1=O (stereo not shown) [Cpd 090]"
  endpoint_label: "IC50"
  endpoint_value: "1 to 20 µM"

###

Target: mouse TRPM3α2 (mTRPM3) ion channel (Mus musculus, UniProt J9SQF3)
Assay: TRPM3 ion channel driven Ca2+ uptake, Fluo-4 AM assay, mTRPM3alpha2 overexpressing flip-in HEK293 cells stimulated with pregnenolone sulfate (50 μM)
Details: mTRPM3 overexpressing HEK293 cells stimulated with pregnenolone sulfate (50 μM), activity ranges A, B, C
# IC50 per record follows

- compound: "Cn1nc2ccc(OCc3ccccc3F)cc2c1C(=O)NC(CO)CO"
  IC50: "1 to 20 µM"
- compound: "Cn1nc2ccc(OCc3ccccn3)cc2c1C(=O)NCC(F)(F)c1ccccc1"
  IC50: "> 20 µM"
- compound: "Cn1nc2ccc(OCc3ccccn3)cc2c1C(=O)NC1CCNCC1(F)F (single isomer, unassigned) [Cpd 128 - En2]"
  IC50: "> 20 µM"
- compound: "Cn1nc2ccc(OCc3ccccn3)cc2c1C(=O)NC(CO)CC(F)F (single isomer, unassigned) [Cpd 228 - En2]"
  IC50: "> 20 µM"
- compound: "Cc1ncc(COc2ccc3nn(C)c(C(=O)NC4(CO)CCC4)c3c2)s1"
  IC50: "1 to 20 µM"
- compound: "Cc1ncc(COc2ccc3nn(C)c(C(=O)NC4CCOCC4)c3c2)s1"
  IC50: "> 20 µM"
- compound: "Cn1nc2ccc(OCc3ccccn3)cc2c1C(=O)NC(CO)CC(F)(F)F (single isomer, unassigned) [Cpd 226-En1]"
  IC50: "< 1 µM"
- compound: "Cn1nc2ccc(OCc3ccccc3)cc2c1C(=O)NCc1cccc(O)n1"
  IC50: "< 1 µM"
- compound: "Cn1nc2ccc(OCc3ccccn3)cc2c1C(=O)NC(C)(CO)C(N)=O (single isomer, unassigned) [Cpd 162 - En2]"
  IC50: "< 1 µM"
- compound: "Cc1nc(COc2ccc3nn(C)c(C(=O)NC(C)(CO)C(N)=O)c3c2)cs1 (single isomer, unassigned) [Cpd 160 - En1]"
  IC50: "1 to 20 µM"
- compound: "CCn1nc2ccc(OCc3ccccn3)cc2c1C(=O)NC(C)(CO)C(N)=O (single isomer, unassigned) [Cpd 188 - En1]"
  IC50: "1 to 20 µM"
- compound: "Cc1ncc(COc2ccc3nn(C)c(C(=O)N[C@H](C(N)=O)[C@@H](C)O)c3c2)o1"
  IC50: "1 to 20 µM"
- compound: "Cn1nc2ccc(OCc3ccccc3C(F)F)cc2c1C(=O)NC1(CO)CCNC1=O (single isomer, unassigned) [Cpd 176 - En1]"
  IC50: "< 1 µM"
- compound: "Cc1ccc(COc2ccc3nn(C)c(C(=O)NC(C)(CO)C(N)=O)c3c2)nc1 (single isomer, unassigned) [Cpd 181 - En1]"
  IC50: "> 20 µM"
- compound: "Cn1nc2ccc(OCc3ccccn3)cc2c1C(=O)NCc1c(F)cccc1C(F)(F)F"
  IC50: "> 20 µM"
- compound: "Cc1ncsc1COc1ccc2nn(C)c(C(=O)NC3COCC3O)c2c1 (single isomer, unassigned) [Cpd 080 - Dia1]"
  IC50: "1 to 20 µM"

###

Target: mouse TRPM3α2 (mTRPM3) ion channel (Mus musculus, UniProt J9SQF3)
Assay: TRPM3 ion channel driven Ca2+ uptake, Fluo-4 AM assay, mTRPM3alpha2 overexpressing flip-in HEK293 cells stimulated with pregnenolone sulfate (50 μM)
Settings: mTRPM3 overexpressing HEK293 cells stimulated with pregnenolone sulfate (50 μM), activity ranges A, B, C
pIC50: −log10 of the molar value.
# pIC50 per record follows

- molecule: "Cc1ncsc1COc1ccc2nn(C)c(C(=O)N[C@@H](C)C(N)=O)c2c1"
  pIC50: "4.70 to 6.00"
- molecule: "Cn1nc2ccc(OCc3cccnc3C(F)(F)F)cc2c1C(=O)NC(CO)C(N)=O (stereo not drawn)"
  pIC50: "> 6.00"
- molecule: "Cn1nc2ccc(OCc3ccccn3)cc2c1C(=O)NC(CO)C(F)(F)F (single isomer, unassigned) [Cpd 254 - En1]"
  pIC50: "4.70 to 6.00"
- molecule: "Cn1nc2ccc(OCc3ccccn3)cc2c1C(=O)NC(CO)CC(F)F (single isomer, unassigned) [Cpd 228 - En1]"
  pIC50: "> 6.00"
- molecule: "Cc1ncsc1COc1ccc2nn(C)c(C(=O)NC3CCN(CC(F)(F)F)C3)c2c1 (stereo not drawn)"
  pIC50: "4.70 to 6.00"
- molecule: "Cn1nccc1COc1ccc2nn(C)c(C(=O)NC3(CO)CC3)c2c1"
  pIC50: "< 4.70"
- molecule: "Cc1ncsc1COc1ccc2nn(C)c(C(=O)NC3(CO)CCC3)c2c1"
  pIC50: "4.70 to 6.00"
- molecule: "Cc1ncsc1COc1ccc2nn(C)c(C(=O)NC(C)(CO)C(=O)N(C)C)c2c1 (single isomer, unassigned) [Cpd 184 - En1]"
  pIC50: "4.70 to 6.00"
- molecule: "Cn1nc2ccc(OCc3cccnc3C(F)(F)F)cc2c1C(=O)NC1(CO)CCC1"
  pIC50: "4.70 to 6.00"
- molecule: "Cc1ncsc1COc1ccc2nn(C)c(C(=O)NCCN3CCOC3=O)c2c1"
  pIC50: "< 4.70"
- molecule: "Cc1ncsc1COc1ccc2nn(C)c(C(=O)NCC(C)(C)CO)c2c1"
  pIC50: "4.70 to 6.00"
- molecule: "Cc1ncsc1COc1ccc2nn(C)c(C(=O)O)c2c1"
  pIC50: "< 4.70"
- molecule: "Cn1nc2ccc(OCc3ccccc3)cc2c1C(=O)NC(CO)C(F)(F)F (stereo not drawn)"
  pIC50: "4.70 to 6.00"
- molecule: "Cn1nc2ccc(OCc3cccnc3C(F)(F)F)cc2c1C(=O)NCC(C)(C)N1CCOCC1"
  pIC50: "4.70 to 6.00"
- molecule: "Cn1ccc(C(CO)NC(=O)c2c3cc(OCc4ccccn4)ccc3nn2C)n1 (single isomer, unassigned) [Cpd 251 - En1]"
  pIC50: "< 4.70"
- molecule: "Cn1nc2ccc(OCC3CCC3)cc2c1C(=O)NC1(CO)CCNC1=O (single isomer, unassigned) [Cpd 159 - En2]"
  pIC50: "> 6.00"
- molecule: "Cn1nccc1COc1ccc2nn(C)c(C(=O)NC3CCNC3=O)c2c1 (stereo not drawn)"
  pIC50: "< 4.70"
- molecule: "Cn1nc2ccc(OCC3CCCC3)cc2c1C(=O)NC(C)(C)C(N)=O"
  pIC50: "4.70 to 6.00"
- molecule: "Cn1nc2ccc(OCc3ccccn3)cc2c1C(=O)NC(CO)C(F)(F)F (single isomer, unassigned) [Cpd 254 - En2]"
  pIC50: "< 4.70"
- molecule: "Cn1nc2ccc(OCc3ccccn3)cc2c1C(=O)NC(CO)CO"
  pIC50: "4.70 to 6.00"
- molecule: "Cn1nc2ccc(OCc3ccccn3)cc2c1C(=O)NC1(CO)CC1(F)F (single isomer, unassigned) [Cpd 235 - En1]"
  pIC50: "< 4.70"
- molecule: "Cc1ncsc1COc1ccc2nn(C)c(C(=O)NC3(C(N)=O)CCC3)c2c1"
  pIC50: "> 6.00"
- molecule: "Cc1ncsc1COc1ccc2nn(C)c(C(=O)NC3(CO)CC3)c2c1"
  pIC50: "4.70 to 6.00"
- molecule: "Cn1nc2ccc(OCc3ccccc3F)cc2c1C(=O)NC1(CO)CCOCC1"
  pIC50: "4.70 to 6.00"
- molecule: "CNC(=O)C(C)(CO)NC(=O)c1c2cc(OCc3scnc3C)ccc2nn1C (single isomer, unassigned) [Cpd 185 - En1]"
  pIC50: "4.70 to 6.00"
- molecule: "Cn1nc2ccc(OCc3ccccc3)cc2c1C(=O)NC1(C(N)=O)CCC1"
  pIC50: "4.70 to 6.00"
- molecule: "Cn1nc2ccc(OCc3ccccc3)cc2c1C(=O)N[C@@H]1COC[C@H]1O (single isomer, unassigned) [Cpd 011 - Dia1]"
  pIC50: "4.70 to 6.00"
- molecule: "Cn1nc2ccc(OCc3ccccn3)cc2c1C(=O)NCc1ncc[nH]1"
  pIC50: "4.70 to 6.00"
- molecule: "Cn1nc2ccc(OCC3CC3)cc2c1C(=O)NC(C)(CO)CO"
  pIC50: "4.70 to 6.00"
- molecule: "O=C1c2c3cc(OCc4ccccc4F)ccc3nn2CCN1C(CO)CO"
  pIC50: "> 6.00"
- molecule: "Cn1nc2ccc(OCc3ccccc3C(F)F)cc2c1C(=O)NC1(C(N)=O)CCOC1 (single isomer, unassigned) [Cpd 175 - En1]"
  pIC50: "> 6.00"
- molecule: "Cc1ncsc1COc1ccc2nn(C)c(C(=O)NCc3cccc(O)n3)c2c1"
  pIC50: "> 6.00"
- molecule: "CNC(=O)C(C)(CO)NC(=O)c1c2cc(OCc3scnc3C)ccc2nn1C (single isomer, unassigned) [Cpd 185 - En2]"
  pIC50: "> 6.00"
